# credit: ChEMBL document CHEMBL1201862

# System: SF-539
# methodNotes: NCI tumour cell line growth inhibition, 48 h
Calls of active or inactive are those of the source. Rule as the data show it: active = GI50 up to about 1.1 µM and inactive = higher.
resultType: GI50

{"molecule": "O=[N+]([O-])c1ccc(COc2cccc3cccnc23)cc1", "GI50": "29.6 µM (inactive)"}
{"molecule": "O=C1/C(=C/c2ccccc2)CN(C(=O)CCN2CCCC2)C/C1=C\\c1ccccc1", "GI50": "1.85 µM (inactive)"}
{"molecule": "N/N=C(\\N)SCc1ccc(N=C=S)cc1", "GI50": "> 100 µM (inactive)"}
{"molecule": "COC(=O)C(=O)C(C(=O)C(=O)Nc1cc([N+](=O)[O-])ccc1C#N)c1nc2ccccc2nc1O (stereo unspecified)", "GI50": "> 100 µM (inactive)"}
{"molecule": "O=C(O)Cc1ccc(/N=N/c2c(O)c(C(=O)O)cc3ccccc23)cc1", "GI50": "> 100 µM (inactive)"}

Recorded GI50 for COc1ccc2ccccc2c1CN1CCOCCOCCN(Cc2c(OC)ccc3ccccc23)CCOCCOCC1 , please?
> 45.3 µM (inactive)

Value lookup for GI50; key = CCC(NC(C)c1ccccc1)C(O)c1ccc(OCc2ccccc2)c(OCc2ccccc2)c1 (stereo unspecified)
16.8 µM (inactive)

Please report the recorded GI50 for CCOC(=O)CCC(NC(=O)c1ccc(Nc2nc3ccccc3nc2C(=O)OCC)s1)C(=O)OCC (stereo unspecified) .
63.4 µM (inactive)

For the molecule shown here, CC(C)=C[C@@H]1O[C@H](O)[C@@H]([C@H]2CC[C@@]3(C)[C@@H]4CC[C@H]5C(C)(C)C(=O)CC[C@@]56C[C@@]46CC[C@]23C)[C@@H]1O , give the reported GI50.
12.4 µM (inactive)

What does the record list as GI50 for NS(=O)(=O)c1ccc(CNc2nc(-c3cccs3)nc3ccc(I)cc23)cc1 ?
11.2 µM (inactive)

Requested read-out: GI50. Entry: Cc1cc(-c2ccc(C(=O)C(Cl)(Cl)Cl)[nH]2)on1
15.3 µM (inactive)

====

In this section, each of the compounds is paired with its reported GI50.
# Tested on: CAKI-1
# methodNotes: NCI tumour cell line growth inhibition, 48 h
Calls of active or inactive are those of the source. No stated cut-off is given here; in the data, active = GI50 up to about 1.1 µM and inactive = higher.

Solved entries (count: 3):
{"compound": "CC(C)=CCC1=C(OCC(=O)O)C(=O)c2ccccc2C1=O", "GI50": "52.5 µM (inactive)"}
{"compound": "CN1CC=C(OP(=O)(NCc2ccccc2)N(CCCl)CCCl)CC1 (stereo not given)", "GI50": "> 100 µM (inactive)"}
{"compound": "O=C(N/N=C(COc1ccc(Cl)cc1)\\N=C\\c1ccncc1)c1ccncc1", "GI50": "> 100 µM (inactive)"}

Bench note: what GI50 did O=C(/C=C/c1ccccc1O)CC(=O)/C=C/c1ccccc1O show?
17.9 µM (inactive)

Name the reported GI50 value associated with the compound COc1ccc(N2C(N)=C(C#N)C(C#N)(C#N)C2c2cccc([N+](=O)[O-])c2)cc1 (stereo not given)
2.61 µM (inactive)

====

This section lists GI50 readings for HCT-15.

Request body: readout GI50, system HCT-15, query Clc1ccc(/N=C2\c3ccccc3CN2c2ccc(Cl)cc2)cc1 . Return the value.
> 100 µM

====

# Tested on: MDA-N
# methodNotes: NCI tumour cell line growth inhibition, 48 h
Activity calls are given as the source filed them. No stated cut-off is given here; in the data, active = GI50 up to about 1.1 µM and inactive = higher.
Write down the outcome that applies. Available outcomes: active, inactive

The following molecules have reported results that may help.
{"molecule": "COc1ccc(C(SCCO)(c2ccccc2)c2ccccc2)cc1", "className": "inactive"}
{"molecule": "O=C(N/N=C(COc1cccc(Cl)c1)\\N=C\\c1cccnc1)c1ccncc1", "className": "inactive"}
{"molecule": "S=C(N/N=C/c1ccccn1)N1CC2CCC(CC2)C1", "className": "active"}

Test call, this molecule: O=Cc1cn(CCCCCn2cc(C=O)c3ccccc32)c2ccccc12
inactive

Could you please tell me the result logged for COc1ccc(/C=N/n2c(Cc3ccc(Cl)cc3)n[nH]c2=O)c(OC)c1 in this assay?
inactive

Would you mind telling me which call this test gave CCN(CC)c1nc(NC2CCCCC2)c2nc(N(CC)CC)nc(NC3CCCCC3)c2n1 ?
inactive

Any idea what this test logged for COc1cc2c(cc1OC)-c1[nH]c3ccc(C#N)cc3c1CC(=O)N2 ?
inactive

What was the test verdict on CC(NC(=O)OCc1ccccc1)NC(=O)OC(C)(C)C (stereo unspecified) ?
inactive

Record request — test call for CNc1cc(Cl)ccc1C(=O)N1CCC[C@H]1CO
inactive

// param item: CO/N=C(\C(=O)Nc1cncs1)c1csc(N)n1 ; yields the recorded call
inactive

====

# Test system: Malme-3M
# methodNotes: NCI tumour cell line growth inhibition, 48 h
Active and inactive are the calls of the source. Rule as the data show it: active = GI50 up to about 1.1 µM and inactive = higher.
Write down the outcome that applies. Available outcomes: active, inactive

Use these answered entries as a reference point.
{"compound": "COc1cc2c(cc1OC)C1Cc3ccc(OC)c(OC)c3C[N+]1([O-])CC2 (stereo not given)", "targetSystem": "Malme-3M", "className": "inactive"}
{"compound": "COC(=O)c1nn(C(=N)c2ccc(Cl)cc2)c2c1CCCCC2", "targetSystem": "Malme-3M", "className": "inactive"}

For O=[N+]([O-])/C(Cl)=C(\Sc1ccccc1)C(Cl)=C(Cl)Cl , which call appears in the assay record?
active

# lookup: test call for O=C(/C=C/c1ccc([N+](=O)[O-])cc1)c1ccc(NCc2nc3ccccc3[nH]2)cc1
inactive

Record lookup: outcome of this test for CCOC(=O)C1(Cc2ccccc2)Cc2ccccc2C1=O (stereo not given) ?
inactive

====

# Test system: NCI-H226
# methodNotes: NCI tumour cell line growth inhibition, 48 h
Calls of active or inactive are those of the source. No stated cut-off is given here; in the data, active = GI50 up to about 1.1 µM and inactive = higher.
resultType: GI50

The following compounds have reported results that may help.
{"compound": "COC(=O)[C@H]1N[C@@H](C(=O)OC)C23CCC[C@H]2CC[C@]1(C(OC)OC)C3", "resultType": "GI50", "recordedMeasurement": "> 100 µM (inactive)"}
{"compound": "COc1ccc2nc3n(c2c1)C(c1c(Cl)cccc1Cl)SC3 (stereo not given)", "resultType": "GI50", "recordedMeasurement": "> 100 µM (inactive)"}
{"compound": "Cc1cc(-c2ccc(C(=O)C(Cl)(Cl)Cl)[nH]2)on1", "resultType": "GI50", "recordedMeasurement": "22.4 µM (inactive)"}
{"compound": "NC(=S)N/N=C1\\C(=O)N(CCc2ccccc2)C(=O)C1C(=O)NCCc1ccccc1 (stereo not given)", "resultType": "GI50", "recordedMeasurement": "> 100 µM (inactive)"}
{"compound": "Cc1ccc(SCC(OCn2cnc3c(Cl)nc(N)nc32)[C@H](C)F)cc1 (stereo not given in full)", "resultType": "GI50", "recordedMeasurement": "> 100 µM (inactive)"}

Could you now look at the following compound, please?
Tell me the measured GI50 of Cc1cc2c(cc1C)[n+]([O-])c(C(=O)/C=C/c1ccc3c(c1)OCO3)c(C)[n+]2[O-] , please.
86.5 µM (inactive)

====

# Test system: A549
# methodNotes: NCI tumour cell line growth inhibition, 48 h
The source made the active and inactive calls. No stated cut-off is given here; in the data, active = GI50 up to about 1.1 µM and inactive = higher. Where a SMILES comes first, the peptide text is derived from it. The star is where a group is joined. Cbz = O=C(OCc1ccccc1)*; Boc = CC(C)(C)OC(=O)*; Bn = c1ccc(C*)cc1
resultType: GI50

Some compounds with known GI50 results, for comparison:
{"compound": "COc1ccc2ccccc2c1CN1CCOCCOCCN(Cc2c(OC)ccc3ccccc23)CCOCCOCC1", "GI50": "98.2 µM (inactive)"}
{"compound": "O=C(n1c2ccccc2c2nnc(S)nc21)C(F)(F)F", "GI50": "> 100 µM (inactive)"}
{"compound": "Fc1cc(F)c(F)c(S)c1F", "GI50": "36.6 µM (inactive)"}

What value of GI50 has been reported for the following compound? COc1ccc2c(c1)[n+]([O-])c(C#N)c(N1CCN(c3ccc([N+](=O)[O-])cc3)CC1)[n+]2[O-]
3.08 µM (inactive)

// query GI50 value for entry CC(C)(C)OC(=O)NC(Cc1ccc(OCc2ccccc2)cc1)C(=O)NC(CCCCNC(=O)OCc1ccccc1)C(=O)O (stereo not given) (Boc-Tyr(Bn)-Lys(Cbz)-OH; configuration not given here)
> 100 µM (inactive)

Given C=Cc1ccccc1C1C(C(=O)OCC)=C(C)N=C2OC(C(=O)OC)C(=O)N21 (stereo not given) , state its recorded GI50.
> 100 µM (inactive)

May I ask what GI50 has been recorded for O=Cc1cn(CCCCCn2cc(C=O)c3ccccc32)c2ccccc12 ?
> 100 µM (inactive)

Can you look up the measured GI50 of O=C(Nc1ccc(Cl)cc1Cl)/C(Cl)=C1/Sc2ccccc2NC1=O for me?
39.3 µM (inactive)

Return reported GI50; argument: CCCC1C(CC)C(NC)C(C#N)(C#N)C1(C#N)C#N (stereo not given)
34.8 µM (inactive)

Param item = Cc1cc2c(cn1)C(=O)OCC2 ; retrieve measured GI50.
> 100 µM (inactive)
